test system: Mus musculus; assay: Antinociceptive activity in OF1 mouse acute central pain model at 150 mg/kg, po administered with EtOH/PEG400/water after 20 mins by hot plate test relative to vehicle-treated control; assay type: functional
Reported Activity values for the following compounds.
# output: bare number, implied unit %

Example entries and their recorded answers appear below.
Recorded Activity of CCOC(=O)OC(OC(=O)CNC(=O)[C@@H](CSSC[C@@H](N)CCSC)Cc1ccccc1)C(C)C (stereo not given in full) , please.
46

Can you check CCC(=O)OC(OC(=O)CNC(=O)[C@@H](CSSC[C@@H](N)CCSC)Cc1ccccc1)C1CCCCC1 (stereo not given in full) next?
8

Now the same for CCOC(=O)OC(OC(=O)CNC(=O)[C@@H](CSSC[C@@H](N)CCSC)Cc1ccccc1)C1CCCCC1 (stereo not given in full)
17

More entries:
Quick check: Activity of CCC(=O)OC(OC(=O)CNC(=O)[C@@H](CSSC[C@@H](N)CCSC)Cc1ccccc1)C(C)C (stereo not given in full) ?
32

Same for CCOC(=O)OC(C)OC(=O)CNC(=O)[C@@H](CSSC[C@@H](N)CCSC)Cc1ccccc1.O=CO (stereo not given in full)
58
